# Experiment description: yeast display, Sf9 membrane polyspecificity reagent, FACS + sequencing; frameworks hold sequencing errors
Reported property: polyreactivity (PSR sort gate)

{"columns": ["Sequence string", "polyreactivity (PSR sort gate)"],
 "data": [
  ["QVQLQESGGGLVQAGGSLRLSCAASGSNSILQSMGWYRQAPRKERELVAGINWGATTYYADSVKGRLTTSRDYAINTVYLQMNSLKPEATAVYYCAVPTYYTYPLLYWGQGTQVTVSS", "low polyreactivity"],
  ["QGQLVESGGGLVQAGGSLRLSCAASGSIFPRYVMGWYRQAPGKERELVAAITTSGGRTYYADSVKGRFTISRDNAKKTVYLQMNSQKPVDTAVYYCAARPWGYRYGSEYVGGDYWGQGTQVTVSS", "high polyreactivity"],
  ["QVQLVESGGGLVQAGGSLRLSCAASGSTFWIYAMGWYRQAPGKERELFAAITLRSGSTYYADSVKGRFTISRDNSKNTVYLQMNSLKPEDTAVYYCATDSWGFDSPNYNYWGQCTQVTVSS", "low polyreactivity"],
  ["QVQLVESGGGFFQAGGRLRLSCAASGRIFGINAMGWYRQAPGKERELVAAISRSGGRTYYADSVKGRFTISRDNGKNTVYFQMNSLKPEDTAVYDCAQGDAHSYSRYDYWGPGTQVTVSS", "high polyreactivity"],
  ["QVQLVESGGGLVQAGGSLRLSCAASGSIFYGNAMGWYRQAPGKERELVAAITRRGGRTYYADSVKGRFTISRDNAKNTVYLQMNSLKPEDTAVYYCNKDVGVAVEMGYWGQGTQVTVSS", "high polyreactivity"]
]}

*Q* Need polyreactivity (PSR sort gate), item `QVQLVESGGGLVQAGGSLRLSCAASGSTFYIYAMGWYRQAPGKERELVAAITEGGGITYYADSVKGRFTISRDNAKNTVYLQMISLKPEDTAVYYCADVWGYYVLPYDYWGQGTQVTVSS`
*A* low polyreactivity

*Q* Need polyreactivity (PSR sort gate), item `QVQLVESGGGLVQAGGSLRLSCAASGLTFYRNAMGWYTQAPGKERELVATISSSGGSTYYADSVKGRFTISRDNEKNTVYLQMNSLKPEDTAVYYCNARYYSYGPGKTVRYRTGYYGYWGQGTQVTVSS`
*A* high polyreactivity

*Q* Need polyreactivity (PSR sort gate), item `QVQLVESGGGFVQAGGSLRLSCAASGSTFRYYAMGWYRQAPGTEREFVAAISWSGSSTYYADSVKGRFTISRDNAKNTVYLQMNSLKPEDTAVYYCAARYRYYGYDYWGQGTQVTVSS`
*A* high polyreactivity

---

# Experiment description: yeast display, Sf9 membrane polyspecificity reagent, FACS + sequencing; frameworks hold sequencing errors
Reported property: polyreactivity (PSR sort gate)

{"columns": ["Sequence string", "Reported property", "Value measured"],
 "data": [
  ["QVHLVESGGGLVQAGGSLRLSCAASGYTFQWYDRGWYRQAPGKERELVASISWRGGSTYYADSVKGRFTISRDNAKNTVYLQMNSLKPEDTAVYYCAASLWPDYEYVYWGQGTQVTVSS", "polyreactivity (PSR sort gate)", "low polyreactivity"],
  ["QVQLVESGGGLVQAGGSLRLSCAASGRIFKYNAMGWYRQAPGKERELVAAISGRGVSTYYADSVKGRFTISRDNAKNPVYLQMNSLKPEDTAVYYCAAETVHGSADFDDWGQGTQVTVSS", "polyreactivity (PSR sort gate)", "low polyreactivity"],
  ["QVQLVESGGGLVQAGGSLRLSCPASGSTFYYYAMGWYRQAPGKERELVASISDDGSTNYADSVKGRFTISRDNAKNTVYLQMNSLKPEDTAVYYCAAVWWHQFGSAWYQMGYWGQGTQVTVSS", "polyreactivity (PSR sort gate)", "low polyreactivity"]
]}
